- testSystem: recombinant human GluN1/GluN2A receptor (Homo sapiens, UniProt Q05586+Q12879)
- Construct: expressed in transfected cells; host or cells: HEK293, tetracycline-inducible expression
- Sequence (Q12879 23-1464, other chains not shown): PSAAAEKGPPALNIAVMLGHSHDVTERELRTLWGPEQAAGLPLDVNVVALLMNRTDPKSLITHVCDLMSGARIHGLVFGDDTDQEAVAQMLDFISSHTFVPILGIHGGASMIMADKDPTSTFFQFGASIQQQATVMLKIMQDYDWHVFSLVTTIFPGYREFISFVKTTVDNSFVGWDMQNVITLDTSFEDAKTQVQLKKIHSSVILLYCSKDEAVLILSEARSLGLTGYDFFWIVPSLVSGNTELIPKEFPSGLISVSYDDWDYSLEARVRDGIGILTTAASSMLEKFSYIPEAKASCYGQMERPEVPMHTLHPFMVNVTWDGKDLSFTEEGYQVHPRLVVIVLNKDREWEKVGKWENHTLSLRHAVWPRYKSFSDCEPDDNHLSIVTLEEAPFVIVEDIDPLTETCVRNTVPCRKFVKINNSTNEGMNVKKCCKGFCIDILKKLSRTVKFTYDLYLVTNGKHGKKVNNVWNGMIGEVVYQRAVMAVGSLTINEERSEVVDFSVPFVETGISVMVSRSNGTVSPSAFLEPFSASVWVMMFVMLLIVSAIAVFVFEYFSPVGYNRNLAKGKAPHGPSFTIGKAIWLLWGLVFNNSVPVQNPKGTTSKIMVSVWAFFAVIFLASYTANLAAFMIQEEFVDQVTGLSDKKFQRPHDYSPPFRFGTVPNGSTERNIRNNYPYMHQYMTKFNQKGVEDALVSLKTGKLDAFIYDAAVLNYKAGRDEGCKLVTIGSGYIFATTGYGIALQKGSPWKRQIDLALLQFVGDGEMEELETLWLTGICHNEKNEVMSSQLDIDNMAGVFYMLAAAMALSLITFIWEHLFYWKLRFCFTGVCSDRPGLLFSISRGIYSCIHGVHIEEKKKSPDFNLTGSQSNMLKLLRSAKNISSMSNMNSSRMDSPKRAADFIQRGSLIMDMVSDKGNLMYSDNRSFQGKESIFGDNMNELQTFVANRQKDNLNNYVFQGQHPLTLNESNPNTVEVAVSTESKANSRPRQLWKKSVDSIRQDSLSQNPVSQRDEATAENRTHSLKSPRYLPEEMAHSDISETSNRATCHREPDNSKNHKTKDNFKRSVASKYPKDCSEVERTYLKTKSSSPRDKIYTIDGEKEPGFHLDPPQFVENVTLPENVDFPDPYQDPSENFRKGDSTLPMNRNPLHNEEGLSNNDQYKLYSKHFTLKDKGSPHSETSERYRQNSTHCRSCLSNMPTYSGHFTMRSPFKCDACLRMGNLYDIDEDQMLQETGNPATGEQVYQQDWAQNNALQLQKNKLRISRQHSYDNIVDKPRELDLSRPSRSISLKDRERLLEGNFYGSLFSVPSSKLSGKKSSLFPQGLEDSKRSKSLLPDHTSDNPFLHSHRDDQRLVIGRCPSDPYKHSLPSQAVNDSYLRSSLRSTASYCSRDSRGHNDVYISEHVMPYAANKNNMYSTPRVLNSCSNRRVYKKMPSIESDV
- assayText: Whole-cell patch clamp of mammalian cells (Syncropatch 384i), NMDA modulation
- Type: cell-based
- experimentalParameters: Table C-2; HEK293 cells, human GluN1/GluN2A; glutamate 1 μM / glycine 100 μM; -80 mV; peak amplitude increase; read-out: EC50
pEC50: −log10 of the molar value.
Give measured pEC50 for each item. Keep answers brief.

Consider the reported pEC50 for these compounds:
C[C@H](CC[C@@H](O)C(C)(C)C#N)[C@H]1CC[C@H]2[C@@H]3CC[C@H]4C[C@@](C)(O)CC[C@]4(C)C3=CC[C@]12C | 7.00 to 9.00
CC[C@]1(O)CC[C@@]2(C)[C@@H](CC[C@@H]3[C@@H]2CC[C@]2(C)[C@@H]([C@H](C)CC[C@@H](O)C4(C#N)CC4)CC[C@@H]32)C1 | 7.00 to 9.00

## Task // map CC[C@]1(O)CC[C@]2(C)C3=CC[C@]4(C)[C@@H]([C@H](C)CC[C@H](O)C5(C#N)CC5)CC[C@H]4[C@@H]3CC[C@H]2C1 to recorded pEC50 (system: recombinant human GluN1/GluN2A receptor (Homo sapiens, UniProt Q05586+Q12879))
## Result 7.00 to 9.00

* * *

- testSystem: recombinant human GluN1/GluN2A receptor (Homo sapiens, UniProt Q05586+Q12879)
- Construct: expressed in transfected cells; host or cells: HEK293, tetracycline-inducible expression
- assayText: Whole-cell patch clamp of mammalian cells (Syncropatch 384i), NMDA modulation
- Assay type: cell-based
- experimentalParameters: Table A-2; HEK293 cells, human GluN1/GluN2A; glutamate 1 μM / glycine 100 μM; -80 mV; peak amplitude increase; read-out: EC50
pEC50: −log10 of the molar value.
recordedMetric: pEC50

CC[C@]1(O)CC[C@@]2(C)[C@@H](CC[C@@H]3[C@@H]2CC[C@]2(C)[C@@H]([C@@H](CC[C@](C)(O)C(F)(F)F)OC)CC[C@@H]32)C1 | 6.30 to 7.00
CC[C@]1(O)CC[C@@]2(C)[C@@H](CC[C@@H]3[C@@H]2CC[C@]2(C)[C@@H]([C@@H](C#N)CCCC(C)(C)O)CC[C@@H]32)C1 | 7.00 to 9.00
CC[C@H](CCCC(C)(C)O)[C@H]1CC[C@H]2[C@@H]3CC[C@H]4C[C@](O)(CC)CC[C@]4(C)[C@H]3CC[C@]12C | 7.00 to 9.00
CCO[C@H](CC[C@H](O)C(C)C)[C@H]1CC[C@H]2[C@@H]3CC[C@@H]4C[C@](O)(CC)CC[C@]4(C)[C@H]3CC[C@]12C [Compound A-11a] | < 6.00
CC[C@]1(O)CC[C@@]2(C)[C@@H](CC[C@@H]3[C@@H]2CC[C@]2(C)[C@@H](C(CC[C@@H](O)C(C)C)C(F)(F)F)CC[C@@H]32)C1 (stereo in doubt) | < 6.00
CC[C@H](CC[C@](C)(O)C(F)(F)F)[C@H]1CC[C@H]2[C@@H]3CC[C@H]4C[C@](O)(CC)CC[C@]4(C)[C@H]3CC[C@]12C | 7.00 to 9.00
CC[C@]1(O)CC[C@@]2(C)C(=CC[C@H]3[C@@H]4CC[C@H]([C@@H](CC[C@H](O)C(C)C)OC)[C@@]4(C)CC[C@@H]32)C1 | 7.00 to 9.00
CC[C@]1(O)CC[C@@]2(C)C(=CC[C@H]3[C@@H]4CC[C@H]([C@@H](CC[C@@H](O)C(C)C)OC)[C@@]4(C)CC[C@@H]32)C1 | 7.00 to 9.00

I have 3 molecules here; please give me pEC50 for each one.
1. CC[C@]1(O)CC[C@@]2(C)[C@@H](CC[C@@H]3[C@@H]2CC[C@]2(C)[C@@H]([C@H](C#N)CCCC(C)(C)O)CC[C@@H]32)C1
2. CCO[C@H](CC[C@H](O)C(C)C)[C@H]1CC[C@H]2[C@@H]3CC[C@H]4C[C@](O)(CC)CC[C@]4(C)[C@H]3CC[C@]12C
3. CC[C@]1(O)CC[C@@]2(C)[C@@H](CC[C@@H]3[C@@H]2CC[C@]2(C)[C@@H]([C@@H](CC[C@@](C)(O)C(F)(F)F)OC)CC[C@@H]32)C1

## Result
1: 7.00 to 9.00; 2: < 6.00; 3: 6.00 to 6.30

Each molecule below has a reported value. Please supply its pEC50.
1. CC[C@H](CC[C@@](C)(O)C(F)(F)F)[C@H]1CC[C@H]2[C@@H]3CC[C@H]4C[C@](O)(CC)CC[C@]4(C)[C@H]3CC[C@]12C
2. CC[C@]1(O)CC[C@@]2(C)[C@@H](CC[C@@H]3[C@@H]2CC[C@]2(C)[C@@H]([C@H](F)CC[C@@H](O)C(C)C)CC[C@@H]32)C1
3. CC[C@]1(O)CC[C@@]2(C)[C@@H](CC[C@@H]3[C@@H]2CC[C@]2(C)[C@@H]([C@@H](CCCC(C)(C)O)OC)CC[C@@H]32)C1

## Result
1: 6.00 to 6.30; 2: 7.00 to 9.00; 3: 6.30 to 7.00

Quick request: pEC50 for each listed item, please.
1. CC[C@]1(O)CC[C@@]2(C)[C@@H](CC[C@@H]3[C@@H]2CC[C@]2(C)[C@@H]([C@H](CCCC(C)(C)O)C(F)(F)F)CC[C@@H]32)C1
2. CC[C@]1(O)CC[C@@]2(C)[C@@H](CC[C@@H]3[C@@H]2CC[C@]2(C)[C@@H]([C@H](F)CC[C@H](O)C(C)C)CC[C@@H]32)C1

## Result
< 6.00
7.00 to 9.00
